assay_details: yeast display, Sf9 membrane polyspecificity reagent, FACS + sequencing; frameworks hold sequencing errors
measured_property: polyreactivity (PSR sort gate)

1. QVQLVESGGGLVQAGVSLRLSCAASGRTFRRYVMGWNRQAPGKERELVASITRGTGTDYADSVKGRFTISRDNRMNTVYLQMNSLKPEDTAVYYGNVKFGQPIYGEFDYWGQGTQVTVSS: low polyreactivity
2. QVQLVESGGGLVQAGGSLRLSCAASGRIFVRYAMGWYRQAPGKERELVAAITKSGGSTYYADSVKGRFTISRDNAKNTVYLQMNSLKPEDTAVYYCNADRFYIDYTNTYDSIRDYWGQGTQVTVSS: low polyreactivity
